- METHOD DESCRIPTION: Half life in monkey at 10 mg/kg, po
- Format: ADME, organism-based, Macaca mulatta
- CONDITIONS USED: rhesus monkey, in vivo
MEASURE: half-life (min)
One number for each entry, in min.

**Q:** Give the reported half-life for this compound. CC1(C)CC(=O)c2c(C(F)(F)F)nn(Cc3ccc(C(=O)NO)cc3)c2C1
**A:** 57

----------
- METHOD DESCRIPTION: C0 in monkey at 0.5 mg/kg, iv
- Type: ADME, organism-based, Macaca mulatta
- CONDITIONS USED: rhesus monkey, in vivo
MEASURE: C0 (ng/mL)
Numbers only, in ng/mL.

**Q:** Give the reported C0 for this compound. CC1(C)CC(=O)c2c(C(F)(F)F)nn(Cc3ccc(C(=O)NO)cc3)c2C1
**A:** 1040

Values compiled from ChEMBL document CHEMBL5523684.
